Target: T1, recombinant human RANTES (huRANTES, Peprotech) (human, UniProt P13501 24-91)
T1 sequence: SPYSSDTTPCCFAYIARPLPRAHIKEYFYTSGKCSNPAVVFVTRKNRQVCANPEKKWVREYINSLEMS
Experiment: cell-based or functional assay
endpoint: Chemotaxis IC50 (nM), 1 nM huRANTES; L1.2-hCCR5 cells; IgG1 format
Numbers only, in nM.

Some binders with recorded Chemotaxis IC50 (nM), 1 nM huRANTES; L1.2-hCCR5 cells; IgG1 format:
1. H11 antibody, IgG1 format (antibody, V domains shown) VH: QVQLVQSGAEVKKPGSSVKVSCKASGGISDNYALSWVRQAPGQGLEWMGGFIPLVDTTNYAQRFQGRLTITADDSMSTVYMELRSLRSDDTAMYYCAREQVAVGPGPTSDRGPDGLDVWGQGTMVTVSS VL: QSVLTQPSSVSGAPGHRVTISCTGSNSNLGADYDVHWYQQLPGSAPKLLIYDNNIRPSGVPARFSGSKSGTSASLAITGLQAEDEADYYCQSYDTGLTSSDVIFGGGTKLTVL ... 1.3
2. 1E4 antibody, IgG1 format (antibody, V domains shown, also called antibody 1E4 purified from CHO supernatant) VH: QVQLVQSGAEVKKPGASVKVSCKVSGYTLTEFAMHWVRQAPGKGLEWMGGFVPEDGETIYAQKFQGRVTMTEDTSTDTAYMELSSLRSEDTAVYYCATDPLYEGSFSVWGQGTTVTVSS VL: SYVLTQPPSVSVAPGQTARITCGGNNIESKSVHWYQQKPGQAPVLVVYDDSDRPSGIPERFSGSNSGNTATLTISRVEAGDEADYYCQVWDSNTDHWVFGGGTKLTVLG ... 0.46

// next item, Chemotaxis IC50 (nM), 1 nM huRANTES; L1.2-hCCR5 cells; IgG1 format requested
Query: Entry under review: 7B5 antibody, IgG1 format (antibody, V domains shown) VH: QVQLVQSGAEVKKPGASVKVSCKVSGYTLNDFAMHWVRQAPGKGLEWMGGYVPEDGDTIYAQKFQGRVTMTEDTSTDTAYMELSSLRSEDTAVYYCATDPLYSGSLSYWGQGTTVTVSS VL: SYVLTQPPSVSVAPGQTARITCGGNNIESKSVHWYQQKPGQAPVLVVYDDSDRPSGIPERFSGSNSGNTATLTISRVEAGDEADYYCQVWDSGPVWWIFGGGTKLTVL . Reported Chemotaxis IC50 (nM), 1 nM huRANTES; L1.2-hCCR5 cells; IgG1 format?
Reply: 1.1
